- System name: mGAT3 (Mus musculus, UniProt P31649)
- Construct: expressed in transfected cells; host or cells: HEK293
- Sequence (P31649 whole entry): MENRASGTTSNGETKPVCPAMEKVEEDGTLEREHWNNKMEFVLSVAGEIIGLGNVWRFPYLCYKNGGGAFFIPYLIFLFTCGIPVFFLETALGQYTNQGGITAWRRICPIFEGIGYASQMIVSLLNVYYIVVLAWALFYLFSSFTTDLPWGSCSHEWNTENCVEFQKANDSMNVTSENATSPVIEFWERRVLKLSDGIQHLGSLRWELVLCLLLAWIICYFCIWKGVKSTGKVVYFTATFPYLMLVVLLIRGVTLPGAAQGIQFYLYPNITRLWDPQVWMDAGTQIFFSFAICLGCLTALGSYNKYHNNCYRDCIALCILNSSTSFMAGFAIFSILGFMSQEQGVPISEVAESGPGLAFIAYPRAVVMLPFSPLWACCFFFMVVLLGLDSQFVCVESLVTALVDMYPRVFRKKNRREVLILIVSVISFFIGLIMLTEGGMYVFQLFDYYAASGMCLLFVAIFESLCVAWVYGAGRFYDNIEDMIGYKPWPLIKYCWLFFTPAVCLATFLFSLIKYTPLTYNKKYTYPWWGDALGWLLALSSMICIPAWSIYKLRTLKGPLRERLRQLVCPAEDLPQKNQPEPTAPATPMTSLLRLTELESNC
- Assay method text: [^3H]GABA uptake assay, HEK293 cells expressing mGAT3
- Assay type: cell-based
- Settings: HEK293; in presence of 100 μM compound
Reported endpoint: remaining activity at 100 µM (%)
# number only, unit % dropped from output

Here are 3 compounds together with their reported answers.
                                   compound             reported_endpoint  result
0  CCOC(=O)C1CCCN(CCOC(c2ccc(CNc3ccc(C(=O)O)cc3)cc2)(c2ccc(OC)cc2)c2ccc(OC)cc2)C1 (racemic)  remaining activity at 100 µM    49.7
1  COc1ccc(C(OCCN2CCCC(C(=O)O)C2)(c2ccc(CN3CCCC3=O)cc2)c2ccc(OC)cc2)cc1 (racemic)  remaining activity at 100 µM    64.2
2  COc1ccc(C(OCCN2CCCC(C(=O)O)C2)(c2ccc(CNC3(C(=O)O)CC3)cc2)c2ccc(OC)cc2)cc1 (racemic)  remaining activity at 100 µM    69.1

Next item in the queue.
Param item: COc1ccc(C(OCCN2CCCC(C(=O)O)C2)(c2ccc(CNCCC(=O)O)cc2)c2ccc(OC)cc2)cc1 (racemic) ; param system: mGAT3 (Mus musculus, UniProt P31649); output remaining activity at 100 µM: 89.1
